molecular target: IGF1R (human) (UniProt P08069); test: radiometric filter-binding kinase assay, Kinase HotSpot; details: compound 0.5 µM; ATP 10 µM
Sequence (P08069 whole entry, looked up): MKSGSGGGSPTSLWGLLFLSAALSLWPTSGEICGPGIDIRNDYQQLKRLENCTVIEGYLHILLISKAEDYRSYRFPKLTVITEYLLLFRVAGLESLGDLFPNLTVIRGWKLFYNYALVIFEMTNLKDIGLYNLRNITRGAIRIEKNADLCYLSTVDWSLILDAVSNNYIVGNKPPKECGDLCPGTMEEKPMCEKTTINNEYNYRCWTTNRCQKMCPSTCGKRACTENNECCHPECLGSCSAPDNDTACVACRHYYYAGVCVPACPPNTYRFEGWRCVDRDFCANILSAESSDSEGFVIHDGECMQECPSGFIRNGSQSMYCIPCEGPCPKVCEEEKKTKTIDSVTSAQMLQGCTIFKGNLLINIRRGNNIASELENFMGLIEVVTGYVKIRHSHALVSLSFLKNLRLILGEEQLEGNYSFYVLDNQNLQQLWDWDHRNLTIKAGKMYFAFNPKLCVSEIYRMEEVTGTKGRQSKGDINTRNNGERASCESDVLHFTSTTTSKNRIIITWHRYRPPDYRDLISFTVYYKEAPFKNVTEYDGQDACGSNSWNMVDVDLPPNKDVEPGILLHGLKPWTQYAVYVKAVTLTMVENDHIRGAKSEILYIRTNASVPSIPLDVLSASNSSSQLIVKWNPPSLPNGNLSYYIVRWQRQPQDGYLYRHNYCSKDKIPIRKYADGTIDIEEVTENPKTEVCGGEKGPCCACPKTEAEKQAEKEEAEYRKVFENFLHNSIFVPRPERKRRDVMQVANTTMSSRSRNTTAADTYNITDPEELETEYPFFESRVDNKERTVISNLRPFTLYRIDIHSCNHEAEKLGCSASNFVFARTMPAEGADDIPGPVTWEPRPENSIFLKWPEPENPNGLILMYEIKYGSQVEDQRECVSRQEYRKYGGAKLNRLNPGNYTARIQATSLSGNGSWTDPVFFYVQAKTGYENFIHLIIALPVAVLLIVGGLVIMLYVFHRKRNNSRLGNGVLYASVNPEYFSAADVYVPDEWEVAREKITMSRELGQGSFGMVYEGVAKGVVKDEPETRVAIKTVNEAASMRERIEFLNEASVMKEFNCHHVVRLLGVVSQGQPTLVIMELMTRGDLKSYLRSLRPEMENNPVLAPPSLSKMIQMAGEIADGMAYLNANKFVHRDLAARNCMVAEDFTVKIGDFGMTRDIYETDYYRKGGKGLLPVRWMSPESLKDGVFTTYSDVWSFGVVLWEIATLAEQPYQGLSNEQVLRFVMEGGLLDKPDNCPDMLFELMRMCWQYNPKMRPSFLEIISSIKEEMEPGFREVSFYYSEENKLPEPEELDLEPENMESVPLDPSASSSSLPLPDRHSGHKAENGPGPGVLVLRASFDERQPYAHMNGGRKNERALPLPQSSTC
parameter: residual activity (%)

[[record]]
molecule = "c1ccc(-c2cnc(Nc3ccc(OCCN4CCCC4)cc3)s2)cc1"
parameter = "residual activity"
valuemeasured = 112

[[record]]
molecule = "Cn1cc(/C=C2\\C(=O)Nc3ccc(S(N)(=O)=O)cc32)c2ccccc21"
parameter = "residual activity"
valuemeasured = 87.9

[[record]]
molecule = "COc1cc2c(Nc3ccc(Br)cc3F)ncnc2cc1OCC1CCN(C)CC1"
parameter = "residual activity"
valuemeasured = 94.6

[[record]]
molecule = "N#CCCc1ccc2c(c1)-c1[nH]c3ccc([N+](=O)[O-])cc3c1CC(=O)N2"
parameter = "residual activity"
valuemeasured = 92.2

[[record]]
molecule = "N#C/C(=C1/Nc2ccccc2S1)c1ccnc(NCCc2cccnc2)n1"
parameter = "residual activity"
valuemeasured = 100

[[record]]
molecule = "COc1cccc(-c2cc(=O)c3ccccc3o2)c1N"
parameter = "residual activity"
valuemeasured = 91.3

[[record]]
molecule = "O=c1c2ccccc2[nH]c(=S)n1CCN1CCC(=C(c2ccc(F)cc2)c2ccc(F)cc2)CC1"
parameter = "residual activity"
valuemeasured = 105

[[record]]
molecule = "CCc1nc(-c2ccc(OC)cc2)[nH]c1-c1ccncc1"
parameter = "residual activity"
valuemeasured = 99.5

[[record]]
molecule = "O=C(c1ccccc1)c1ccc(N2CCOCC2)cc1O"
parameter = "residual activity"
valuemeasured = 106

[[record]]
molecule = "O=S(=O)(NCCNC/C=C/c1ccc(Br)cc1)c1cccc2cnccc12"
parameter = "residual activity"
valuemeasured = 104

[[record]]
molecule = "O=c1c(-c2ccc(F)cc2)c(-c2ccncc2)[nH]n1-c1ccc(Cl)cc1"
parameter = "residual activity"
valuemeasured = 92.8

[[record]]
molecule = "COc1cc2ncnc(Nc3ccc(O)c(Br)c3)c2cc1OC"
parameter = "residual activity"
valuemeasured = 104

[[record]]
molecule = "FC(F)(F)c1ccc(/C=C/c2nc(COc3ccc(CCCCn4ccnn4)cc3)co2)cc1"
parameter = "residual activity"
valuemeasured = 101

[[record]]
molecule = "O=C1NC(=O)c2cc(Nc3ccc(F)cc3)c(Nc3ccc(F)cc3)cc21"
parameter = "residual activity"
valuemeasured = 102

[[record]]
molecule = "N/C(=N\\N=C/c1ccc(-c2cccc([N+](=O)[O-])c2)o1)N[N+](=O)[O-]"
parameter = "residual activity"
valuemeasured = 96.4

[[record]]
molecule = "COc1cc2c(N3CCN(C(=O)Nc4ccc(OC(C)C)cc4)CC3)ncnc2cc1OCCCN1CCCCC1"
parameter = "residual activity"
valuemeasured = 97.7

[[record]]
molecule = "Nc1ncnc2c1cnn2-c1ccccc1"
parameter = "residual activity"
valuemeasured = 96.4

[[record]]
molecule = "O=c1cc(N2CCOCC2)oc2c(-c3ccccc3)cccc12"
parameter = "residual activity"
valuemeasured = 102

[[record]]
molecule = "O=C(O)c1ccc2c3c1cccc3c(=O)n1c3ccccc3nc21"
parameter = "residual activity"
valuemeasured = 100

[[record]]
molecule = "COc1cc2c(cc1OC)-c1[nH]nc(Nc3cccc(F)c3)c1C2"
parameter = "residual activity"
valuemeasured = 93.9

[[record]]
molecule = "CCCCc1c(-c2ccc(O)cc2)[nH]c2nccnc12"
parameter = "residual activity"
valuemeasured = 87.3

[[record]]
molecule = "Cc1cc(Nc2nc(-c3ccccc3)nc3ccccc23)n[nH]1"
parameter = "residual activity"
valuemeasured = 70.8

[[record]]
molecule = "CCOc1cc2ncnc(Nc3cccc(Br)c3)c2cc1OCC"
parameter = "residual activity"
valuemeasured = 101

[[record]]
molecule = "O=C1NC(=O)c2c1c1c3ccccc3[nH]c1c1[nH]c3cc(Br)ccc3c21"
parameter = "residual activity"
valuemeasured = 15


###

residual activity for assorted compounds
molecular target: JAK1 JH1 catalytic (human); test: radiometric filter-binding kinase assay, Kinase HotSpot; conditions: compound 0.5 µM; ATP 10 µM
parameter: residual activity (%)

[[record]]
molecule = "O=C1NC(=O)c2cc(Nc3ccc(F)cc3)c(Nc3ccc(F)cc3)cc21"
parameter = "residual activity"
valuemeasured = 91.5

[[record]]
molecule = "O=c1[nH]c2ccccc2n1C1CCN(Cc2ccc(-c3nc4cc5[nH]cnc5cc4nc3-c3ccccc3)cc2)CC1"
parameter = "residual activity"
valuemeasured = 94.6

[[record]]
molecule = "COc1cccc(-c2cc(=O)c3ccccc3o2)c1N"
parameter = "residual activity"
valuemeasured = 98.9

[[record]]
molecule = "O=c1cc(N2CCOCC2)oc2c(-c3ccccc3)cccc12"
parameter = "residual activity"
valuemeasured = 108

[[record]]
molecule = "COc1cc2c(N3CCN(C(=O)Nc4ccc(OC(C)C)cc4)CC3)ncnc2cc1OCCCN1CCCCC1"
parameter = "residual activity"
valuemeasured = 102

[[record]]
molecule = "COc1cc2c(Nc3ccc(Br)cc3F)ncnc2cc1OCC1CCN(C)CC1"
parameter = "residual activity"
valuemeasured = 99.1

[[record]]
molecule = "Cc1cc(Nc2nc(-c3ccccc3)nc3ccccc23)n[nH]1"
parameter = "residual activity"
valuemeasured = 83.7

[[record]]
molecule = "CCCCc1c(-c2ccc(O)cc2)[nH]c2nccnc12"
parameter = "residual activity"
valuemeasured = 53.8

[[record]]
molecule = "N#C/C(=C1/Nc2ccccc2S1)c1ccnc(NCCc2cccnc2)n1"
parameter = "residual activity"
valuemeasured = 113

[[record]]
molecule = "O=C(O)c1ccc2c3c1cccc3c(=O)n1c3ccccc3nc21"
parameter = "residual activity"
valuemeasured = 98.4

[[record]]
molecule = "Nc1ncnc2c1cnn2-c1ccccc1"
parameter = "residual activity"
valuemeasured = 98.1


###

target: UniProt Q7L7X3; assay: radiometric filter-binding kinase assay, Kinase HotSpot; conditions: compound 0.5 µM; ATP 10 µM
Sequence (Q7L7X3 whole entry, looked up): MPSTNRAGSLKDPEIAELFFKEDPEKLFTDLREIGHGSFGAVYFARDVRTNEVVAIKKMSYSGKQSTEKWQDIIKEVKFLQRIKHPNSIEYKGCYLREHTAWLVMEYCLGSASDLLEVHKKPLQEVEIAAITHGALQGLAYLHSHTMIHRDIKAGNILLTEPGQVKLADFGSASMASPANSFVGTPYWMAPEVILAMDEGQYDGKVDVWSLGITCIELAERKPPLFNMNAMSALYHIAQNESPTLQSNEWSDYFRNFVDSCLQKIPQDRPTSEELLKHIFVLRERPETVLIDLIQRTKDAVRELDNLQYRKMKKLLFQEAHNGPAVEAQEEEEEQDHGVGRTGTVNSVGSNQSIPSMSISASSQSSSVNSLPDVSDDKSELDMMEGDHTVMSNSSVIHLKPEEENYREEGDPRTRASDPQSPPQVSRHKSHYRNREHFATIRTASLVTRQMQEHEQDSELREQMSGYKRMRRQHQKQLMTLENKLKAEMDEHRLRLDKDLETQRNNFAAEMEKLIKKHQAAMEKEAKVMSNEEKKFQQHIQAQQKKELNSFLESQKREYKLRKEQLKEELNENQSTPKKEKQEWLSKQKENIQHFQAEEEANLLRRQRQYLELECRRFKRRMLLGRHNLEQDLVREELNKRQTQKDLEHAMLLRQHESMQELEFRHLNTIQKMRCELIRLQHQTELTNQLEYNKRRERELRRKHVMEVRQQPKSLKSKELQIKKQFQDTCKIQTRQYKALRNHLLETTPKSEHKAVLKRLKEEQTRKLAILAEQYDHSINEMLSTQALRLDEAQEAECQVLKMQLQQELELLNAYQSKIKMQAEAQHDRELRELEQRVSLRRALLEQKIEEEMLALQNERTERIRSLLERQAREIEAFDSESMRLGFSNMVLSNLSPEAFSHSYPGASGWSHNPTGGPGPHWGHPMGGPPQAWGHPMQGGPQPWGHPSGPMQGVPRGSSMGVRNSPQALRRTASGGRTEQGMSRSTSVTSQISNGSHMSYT
Entries annotated with measured residual activity
parameter: residual activity

[[record]]
molecule = "Cn1cc(/C=C2\\C(=O)Nc3ccc(S(N)(=O)=O)cc32)c2ccccc21"
parameter = "residual activity"
valuemeasured = "98.3%"

[[record]]
molecule = "CCOc1cc2ncnc(Nc3cccc(Br)c3)c2cc1OCC"
parameter = "residual activity"
valuemeasured = "99.9%"

[[record]]
molecule = "N#C/C(=C1/Nc2ccccc2S1)c1ccnc(NCCc2cccnc2)n1"
parameter = "residual activity"
valuemeasured = "98%"

[[record]]
molecule = "O=c1c2ccccc2[nH]c(=S)n1CCN1CCC(=C(c2ccc(F)cc2)c2ccc(F)cc2)CC1"
parameter = "residual activity"
valuemeasured = "101%"

[[record]]
molecule = "COc1cc2c(cc1OC)-c1[nH]nc(Nc3cccc(F)c3)c1C2"
parameter = "residual activity"
valuemeasured = "76.3%"

[[record]]
molecule = "COc1cc2ncnc(Nc3ccc(O)c(Br)c3)c2cc1OC"
parameter = "residual activity"
valuemeasured = "93.3%"

[[record]]
molecule = "O=C1NC(=O)c2cc(Nc3ccc(F)cc3)c(Nc3ccc(F)cc3)cc21"
parameter = "residual activity"
valuemeasured = "90.3%"

[[record]]
molecule = "FC(F)(F)c1ccc(/C=C/c2nc(COc3ccc(CCCCn4ccnn4)cc3)co2)cc1"
parameter = "residual activity"
valuemeasured = "102%"

[[record]]
molecule = "COc1cc2c(Nc3ccc(Br)cc3F)ncnc2cc1OCC1CCN(C)CC1"
parameter = "residual activity"
valuemeasured = "103%"

[[record]]
molecule = "O=C(O)c1ccc2c3c1cccc3c(=O)n1c3ccccc3nc21"
parameter = "residual activity"
valuemeasured = "93.3%"


###

Each entry below lists one item and its recorded residual activity value.
biological target: FGFR3 (human); assay: radiometric filter-binding kinase assay, Kinase HotSpot; settings: compound 0.5 µM; ATP 10 µM
parameter: residual activity (%)

[[record]]
molecule = "CCCCc1c(-c2ccc(O)cc2)[nH]c2nccnc12"
valuemeasured = 80

[[record]]
molecule = "CCOc1cc2ncnc(Nc3cccc(Br)c3)c2cc1OCC"
valuemeasured = 103

[[record]]
molecule = "Cn1cc(/C=C2\\C(=O)Nc3ccc(S(N)(=O)=O)cc32)c2ccccc21"
valuemeasured = 33.8

[[record]]
molecule = "N#C/C(=C1/Nc2ccccc2S1)c1ccnc(NCCc2cccnc2)n1"
valuemeasured = 98.2

[[record]]
molecule = "Cc1cc(Nc2nc(-c3ccccc3)nc3ccccc23)n[nH]1"
valuemeasured = 71.7

[[record]]
molecule = "c1ccc(-c2cnc(Nc3ccc(OCCN4CCCC4)cc3)s2)cc1"
valuemeasured = 98.2


###

target: MATK (human); assay: radiometric filter-binding kinase assay, Kinase HotSpot; conditions: compound 0.5 µM; ATP 10 µM
# note: boundary value 90% maps to NO; residual activity below it maps to YES

[[record]]
molecule = "O=c1cc(N2CCOCC2)oc2c(-c3ccccc3)cccc12"
labelclass = "YES"

[[record]]
molecule = "O=C1NC(=O)c2c1c1c3ccccc3[nH]c1c1[nH]c3cc(Br)ccc3c21"
labelclass = "NO"

[[record]]
molecule = "COc1cc2c(N3CCN(C(=O)Nc4ccc(OC(C)C)cc4)CC3)ncnc2cc1OCCCN1CCCCC1"
labelclass = "YES"

[[record]]
molecule = "O=S(=O)(NCCNC/C=C/c1ccc(Br)cc1)c1cccc2cnccc12"
labelclass = "NO"

[[record]]
molecule = "c1ccc(-c2cnc(Nc3ccc(OCCN4CCCC4)cc3)s2)cc1"
labelclass = "NO"

[[record]]
molecule = "O=C(O)c1ccc2c3c1cccc3c(=O)n1c3ccccc3nc21"
labelclass = "NO"

[[record]]
molecule = "COc1cc2ncnc(Nc3ccc(O)c(Br)c3)c2cc1OC"
labelclass = "NO"

[[record]]
molecule = "CCCCc1c(-c2ccc(O)cc2)[nH]c2nccnc12"
labelclass = "NO"

[[record]]
molecule = "CCc1nc(-c2ccc(OC)cc2)[nH]c1-c1ccncc1"
labelclass = "NO"

[[record]]
molecule = "COc1cc2c(Nc3ccc(Br)cc3F)ncnc2cc1OCC1CCN(C)CC1"
labelclass = "NO"

[[record]]
molecule = "N#Cc1c(NC(=O)c2cccc3ccccc23)sc2c1CCCC2"
labelclass = "NO"

